System: Escherichia coli TOP10
EXPERIMENTAL PROTOCOL: shrunken log2 fold change of peptide-encoding DNA abundance (4.5 h post-induction vs induction); higher = less antimicrobial activity (less host growth inhibition)
TEST SETTINGS: time post-induction: 4.5 h; library: site-saturation at positions 5, 18, 19, 20
The sequences listed here are annotated with their shrunken log2 fold change.
// no unit string in output, number only

Q. Lab request: please report shrunken log2 fold change under test system Escherichia coli TOP10 for RRIRYRPPRLPRPRPRPKNGPRP
A. 0.013

Q. Same again, this time with RRIRVRPPRLPRPRPRPEDSPRP
A. 0.0654

Q. Same again, this time with RRIRNRPPRLPRPRPRPPCRPRP
A. -0.0266

Q. Same again, this time with RRIRQRPPRLPRPRPRPKGMPRP
A. 0.0157

Q. Same again, this time with RRIRLRPPRLPRPRPRPNNLPRP
A. -0.177

* * *

Tested on: Escherichia coli TOP10
EXPERIMENTAL PROTOCOL: shrunken log2 fold change of peptide-encoding DNA abundance (4.5 h post-induction vs induction); higher = less antimicrobial activity (less host growth inhibition)
TEST SETTINGS: time post-induction: 4.5 h; library: site-saturation at positions 5, 18, 19, 20
Param threshold (-0.1) applies to shrunken log2 fold change; output Met when value >= threshold, Not met when value < threshold.

>>> class_label("RRIRMRPPRLPRPRPRPLEQPRP")
"Met"
>>> class_label("RRIRCRPPRLPRPRPRPDPLPRP")
"Met"
>>> class_label("RRIRSRPPRLPRPRPRPDHCPRP")
"Met"
>>> class_label("RRIRQRPPRLPRPRPRPNNIPRP")
"Not met"

Switching to the query record.
Q. Could you verify whether the entry RRIRSRPPRLPRPRPRPHLLPRP shows shrunken log2 fold change of no less than -0.1?
A. Met

* * *

Test system: Escherichia coli TOP10
EXPERIMENTAL PROTOCOL: shrunken log2 fold change of peptide-encoding DNA abundance (4.5 h post-induction vs induction); higher = less antimicrobial activity (less host growth inhibition)
TEST SETTINGS: time post-induction: 4.5 h; library: site-saturation at positions 5, 18, 19, 20
Categorized via shrunken log2 fold change: class 1 = under -0.3, class 2 = from -0.3 up to 0.1, class 3 = 0.1 and over

Observe how each entry below is paired with its result.
>>> class_label("RRIRYRPPRLPRPRPRPNLKPRP")
"class 1"
>>> class_label("RRIRRRPPRLPRPRPRPVSVPRP")
"class 3"

Q. Please classify: RRIRDRPPRLPRPRPRPFQKPRP
A. class 3

Q. Same again, this time with RRIRSRPPRLPRPRPRPDCNPRP
A. class 3

Q. Same again, this time with RRIRHRPPRLPRPRPRPEIEPRP
A. class 2

Q. Same again, this time with RRIRHRPPRLPRPRPRPFSFPRP
A. class 1

Q. Same again, this time with RRIRTRPPRLPRPRPRPPNGPRP
A. class 3

Q. Same again, this time with RRIRMRPPRLPRPRPRPHPTPRP
A. class 3

Q. Same again, this time with RRIRARPPRLPRPRPRPHIQPRP
A. class 2

Q. Same again, this time with RRIRSRPPRLPRPRPRPTDLPRP
A. class 1

Q. Same again, this time with RRIRGRPPRLPRPRPRPIGGPRP
A. class 2

Q. Same again, this time with RRIRIRPPRLPRPRPRPDWNPRP
A. class 1

Q. Same again, this time with RRIRHRPPRLPRPRPRPGHSPRP
A. class 2

Q. Same again, this time with RRIRARPPRLPRPRPRPWPNPRP
A. class 3

Q. Same again, this time with RRIRERPPRLPRPRPRPKCWPRP
A. class 3

* * *

Test system: Escherichia coli TOP10
EXPERIMENTAL PROTOCOL: shrunken log2 fold change of peptide-encoding DNA abundance (4.5 h post-induction vs induction); higher = less antimicrobial activity (less host growth inhibition)
TEST SETTINGS: time post-induction: 4.5 h; library: site-saturation at positions 5, 18, 19, 20
The sequences listed here are annotated with their shrunken log2 fold change.
// no unit string in output, number only

For orientation, consider the following solved cases.
>>> value_reported("RRIRCRPPRLPRPRPRPLFRPRP")
-0.283
>>> value_reported("RRIRERPPRLPRPRPRPQCMPRP")
-0.586
>>> value_reported("RRIRYRPPRLPRPRPRPFHVPRP")
-0.184
>>> value_reported("RRIRCRPPRLPRPRPRPLGMPRP")
-0.433
>>> value_reported("RRIRPRPPRLPRPRPRPTPKPRP")
0.528

Q. Item RRIRIRPPRLPRPRPRPRCKPRP has what recorded shrunken log2 fold change?
A. -0.35

Q. Same again, this time with RRIRTRPPRLPRPRPRPRSFPRP
A. -0.0927

Q. Same again, this time with RRIRVRPPRLPRPRPRPCFCPRP
A. -0.252

Q. Same again, this time with RRIRNRPPRLPRPRPRPVQKPRP
A. -0.0122

* * *

The sequences listed here are annotated with their shrunken log2 fold change.
System: Escherichia coli TOP10
EXPERIMENTAL PROTOCOL: shrunken log2 fold change of peptide-encoding DNA abundance (4.5 h post-induction vs induction); higher = less antimicrobial activity (less host growth inhibition)
TEST SETTINGS: time post-induction: 4.5 h; library: site-saturation at positions 5, 18, 19, 20
// no unit string in output, number only

>>> value_reported("RRIRGRPPRLPRPRPRPRKVPRP")
0.741

Q. Item RRIRERPPRLPRPRPRPWCRPRP has what recorded shrunken log2 fold change?
A. -0.126

Q. Same again, this time with RRIRFRPPRLPRPRPRPSECPRP
A. -0.472

* * *

Tested on: Escherichia coli TOP10
EXPERIMENTAL PROTOCOL: shrunken log2 fold change of peptide-encoding DNA abundance (4.5 h post-induction vs induction); higher = less antimicrobial activity (less host growth inhibition)
TEST SETTINGS: time post-induction: 4.5 h; library: site-saturation at positions 5, 18, 19, 20
Param threshold (-0.3) applies to shrunken log2 fold change; output met when value >= threshold, not met when value < threshold.

Q. Could you verify whether the entry RRIRKRPPRLPRPRPRPTWWPRP shows shrunken log2 fold change of no less than -0.3?
A. met

Q. Same again, this time with RRIRFRPPRLPRPRPRPCLQPRP
A. met

* * *

System: Escherichia coli TOP10
EXPERIMENTAL PROTOCOL: shrunken log2 fold change of peptide-encoding DNA abundance (4.5 h post-induction vs induction); higher = less antimicrobial activity (less host growth inhibition)
TEST SETTINGS: time post-induction: 4.5 h; library: site-saturation at positions 5, 18, 19, 20
The sequences listed here are annotated with their shrunken log2 fold change.

For orientation, consider the following solved cases.
>>> value_reported("RRIRCRPPRLPRPRPRPHQGPRP")
-0.0624
>>> value_reported("RRIRRRPPRLPRPRPRPYHWPRP")
-0.48
>>> value_reported("RRIRPRPPRLPRPRPRPCFQPRP")
-0.0314
>>> value_reported("RRIRCRPPRLPRPRPRPRHKPRP")
-0.265
>>> value_reported("RRIRQRPPRLPRPRPRPIWQPRP")
-0.049

Q. Item RRIRNRPPRLPRPRPRPENKPRP has what recorded shrunken log2 fold change?
A. -0.0669

Q. Same again, this time with RRIRVRPPRLPRPRPRPQMHPRP
A. -0.175

Q. Same again, this time with RRIRDRPPRLPRPRPRPFENPRP
A. 0.115

Q. Same again, this time with RRIRARPPRLPRPRPRPPHTPRP
A. 0.739

Q. Same again, this time with RRIRKRPPRLPRPRPRPGMTPRP
A. 0.129

Q. Same again, this time with RRIRSRPPRLPRPRPRPINHPRP
A. -0.662

Q. Same again, this time with RRIRPRPPRLPRPRPRPPSVPRP
A. 0.321

Q. Same again, this time with RRIRTRPPRLPRPRPRPIVSPRP
A. -0.0631

Q. Same again, this time with RRIRQRPPRLPRPRPRPQQFPRP
A. 0.0507

Q. Same again, this time with RRIRWRPPRLPRPRPRPAIKPRP
A. 0.0964

Q. Same again, this time with RRIRSRPPRLPRPRPRPHARPRP
A. 0.0679

Q. Same again, this time with RRIRVRPPRLPRPRPRPCARPRP
A. -0.0405

Q. Same again, this time with RRIRTRPPRLPRPRPRPSWSPRP
A. -0.196

* * *

System: Escherichia coli TOP10;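 further: peptides expressed intracellularly from a pBAD plasmid library in pooled LB shake-flask culture, induced with 0.3% L-arabinose, DNA abundance read by NGS, three biological replicates, DESeq2 with apeglm shrinkage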
EXPERIMENTAL PROTOCOL: shrunken log2 fold change of peptide-encoding DNA abundance (4.5 h post-induction vs induction); higher = less antimicrobial activity (less host growth inhibition)
TEST SETTINGS: time post-induction: 4.5 h; library: site-saturation at positions 5, 18, 19, 20
Param threshold (0.01) applies to shrunken log2 fold change; output True when value >= threshold, False when value < threshold.

>>> class_label("RRIRDRPPRLPRPRPRPPFGPRP")
"True"
>>> class_label("RRIRYRPPRLPRPRPRPVSIPRP")
"False"
>>> class_label("RRIRHRPPRLPRPRPRPESAPRP")
"True"
>>> class_label("RRIRYRPPRLPRPRPRPKCGPRP")
"True"
>>> class_label("RRIRHRPPRLPRPRPRPRYSPRP")
"False"

Switching to the query record.
Q. Could you verify whether the entry RRIRSRPPRLPRPRPRPHNFPRP shows shrunken log2 fold change of no less than 0.01?
A. False
